- Tested Target: Platelet-activating factor receptor (Oryctolagus cuniculus)
- Measurement Protocol: Tested in vitro for antagonistic activity to displace [3H]PAF from rabbit platelet membrane PAF receptors
Endpoint Label: Ki (µM)

Compound	Tested Target	Ki (µM)
CN(C)C(=O)n1cc(C(=O)c2ccn3c2CSC3c2cccnc2)c2ccc(-c3ccccc3)cc21 (stereo unspecified)	Platelet-activating factor receptor (Oryctolagus cuniculus)	0.023
O=C(c1ccn2c1CSC2c1cccnc1)c1c[nH]c2cc(OCc3ccccc3)ccc12 (stereo unspecified)	Platelet-activating factor receptor (Oryctolagus cuniculus)	0.064
CN(C)C(=O)n1cc(C(=O)c2ccn3c2CSC3c2cccnc2)c2ccc(OCc3ccccc3)cc21 (stereo unspecified)	Platelet-activating factor receptor (Oryctolagus cuniculus)	0.017
O=C(c1ccn2c1CSC2c1cccnc1)c1c[nH]c2ccc(OCc3ccccc3)cc12 (stereo unspecified)	Platelet-activating factor receptor (Oryctolagus cuniculus)	0.18
CN(C)C(=O)n1cc(C(=O)c2ccn3c2CSC3c2cccnc2)c2ccc(Oc3ccc(F)cc3)cc21 (stereo unspecified)	Platelet-activating factor receptor (Oryctolagus cuniculus)	0.0017

I. CN(C)C(=O)n1cc(C(=O)c2ccn3c2CSC3c2cccnc2)c2cc(OCc3ccccc3)ccc21 (stereo unspecified)
II. NC(=O)n1cc(C(=O)c2ccn3c2CSC3c2cccnc2)c2ccc(-c3ccc(F)cc3)cc21 (stereo unspecified)
Param pair: I , II . Output: the one whose Ki is numerically greater. Answer = label.
I
(I: 0.12 µM, II: 0.006 µM)

a. NNC(=O)n1cc(C(=O)c2ccn3c2CSC3c2cccnc2)c2ccc(-c3ccc(F)cc3)cc21 (stereo unspecified)
b. CN(C)C(=O)n1cc(C(=O)c2ccn3c2CSC3c2cccnc2)c2ccc(Cl)cc21 (stereo unspecified)
Sort a and b by Ki descending and give the first. In your reply, give the label of the chosen option.
b

###

- Tested Target: Platelet-activating factor receptor (Oryctolagus cuniculus)
- Measurement Protocol: Tested in vitro for antagonistic activity to displace [3H]PAF from rabbit platelet membrane PAF receptors
pKi: −log10 of the molar value.
Endpoint Label: pKi

Compound	Tested Target	Experimental Value
O=C(c1ccn2c1CSC2c1cccnc1)c1cn(C(=O)N2CCOCC2)c2ccccc12 (centres undefined)	Platelet-activating factor receptor (Oryctolagus cuniculus)	6.65
O=C(c1ccn2c1CSC2c1cccnc1)c1c[nH]c2cc(-c3ccc(F)cc3)ccc12 (centres undefined)	Platelet-activating factor receptor (Oryctolagus cuniculus)	7.12
CC(C)(C)OC(=O)n1cc(C(=O)c2ccn3c2CSC3c2cccnc2)c2ccccc21 (centres undefined)	Platelet-activating factor receptor (Oryctolagus cuniculus)	6.96

A. CN(C)C(=O)n1cc(C(=O)c2ccn3c2CSC3c2cccnc2)c2ccc(Cc3ccccc3)cc21 (centres undefined)
B. O=C(c1ccn2c1CSC2c1cccnc1)c1c[nH]c2cccc(O)c12 (centres undefined)
C. CN(C)C(=O)n1cc(C(=O)c2ccn3c2CSC3c2cccnc2)c2ccccc21 (centres undefined)
D. Cn1cc(C(=O)c2ccn3c2CSC3c2cccnc2)c2ccc(-c3ccc(F)cc3)cc21 (centres undefined)
I would appreciate it if you could sort these 4 compounds by pKi, starting from the smallest number. Arrange the labels as the request states and list them.
B, C, A, D
(B: 6.49, C: 7.02, A: 7.89, D: 8.15)

A. CCNC(=O)n1cc(C(=O)c2ccn3c2CSC3c2cccnc2)c2ccc(-c3ccc(F)cc3)cc21 (centres undefined)
B. O=C(c1ccn2c1CSC2c1cccnc1)c1c[nH]c2c(OCc3ccccc3)cccc12 (centres undefined)
Which value of pKi is numerically greater: that of A or that of B ? Respond using the label that marks the chosen record.
A
